- test-system: UniProt A0A045ISB3
- Sequence (A0A045ISB3 whole entry): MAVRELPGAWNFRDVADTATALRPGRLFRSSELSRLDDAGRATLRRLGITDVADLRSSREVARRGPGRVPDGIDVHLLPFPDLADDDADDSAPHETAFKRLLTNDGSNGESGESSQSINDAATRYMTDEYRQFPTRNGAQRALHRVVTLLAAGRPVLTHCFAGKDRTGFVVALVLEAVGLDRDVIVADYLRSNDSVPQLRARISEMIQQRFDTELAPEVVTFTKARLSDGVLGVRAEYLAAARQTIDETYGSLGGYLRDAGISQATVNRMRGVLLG
- assay-name: Inhibition of Mycobacterium tuberculosis H37Ra PTPB expressed in Escherichia coli BL21 (DE3) using p-nitrophenyl phosphate as substrate preincubated for 10 mins followed by substrate addition and measured for 5 mins by spectrophotometric analysis
property-name: pIC50
Kindly note that pIC50 refers to -log10 of the concentration in mol/L and answer with the value alone.

Reference set (7 entries):
Req: Kindly state the measured pIC50 obtained for `CC(C)=C/C=C\[C@H](C)[C@H]1CC[C@]2(C)C[C@H]3[C@@H]4/C(=C\C[C@@H]12)C(=O)O[C@]4(O)C[C@@]3(C)O` with UniProt A0A045ISB3.
Resp: 4.44

Req: Please answer likewise for `CC1=CC(=O)[C@H]2/C(C=O)=C\C[C@H]3[C@@H]([C@@H](C)/C=C\[C@@H]4OC4(C)C)CC[C@]3(C)C[C@H]12`
Resp: 4.46

Req: Please answer likewise for `CO[C@]12C[C@@](C)(O)[C@H]3C[C@@]4(C)CC[C@H]([C@@H](C)/C=C\C=C(C)C)[C@@H]4C/C=C(/C(=O)N1)[C@@H]32`
Resp: 4.38

Req: Please answer likewise for `CC(C)=C/C=C\[C@H](C)[C@H]1CC[C@]2(C)C[C@@H]3C(C)=CC(=O)[C@H]3/C(C(=O)O)=C\C[C@@H]12`
Resp: 4.55

Req: Please answer likewise for `CC(C)=C/C=C\[C@H](C)[C@H]1CC[C@]2(C)C[C@H]3[C@@H]4/C(=C\C=C\12)C(=O)N[C@]4(O)C[C@@]3(C)O`
Resp: 4.41

Req: Please answer likewise for `CC1=CC(=O)[C@@H]2/C(C=O)=C\C[C@H]3[C@@H]([C@@H](C)/C=C\[C@H](O)C(C)(C)O)CC[C@]3(C)C[C@H]12`
Resp: 4.72

Req: Please answer likewise for `CC(C)=C/C=C\[C@H](C)[C@H]1CC[C@]2(C)C[C@@H]3C(C)=CC(=O)[C@@H]3/C(C=O)=C\C[C@@H]12`
Resp: 4.62

Continuing:
Req: Kindly state the measured pIC50 obtained for `CC(C)=C/C=C\[C@H](C)[C@H]1CC[C@]2(C)C[C@@H]3C(C)=CC(=O)[C@H]3/C(CO)=C\C[C@@H]12` with UniProt A0A045ISB3.
Resp: 4.43

* * *

Quick reference for CC50 among some compounds
- assay-name: Cytotoxicity against mouse RAW264.7 cells assessed as reduction in cell viability by MTT assay
- Type: cell-based

Reference set (3 entries):
Req: Any idea what CC50 was measured for `CC(C)=C/C=C\[C@H](C)[C@H]1CC[C@]2(C)C[C@@H]3C(C)=CC(=O)[C@@H]3/C(C=O)=C\C[C@@H]12` ?
Resp: 21 µM

Req: Please answer likewise for `CC(C)=C/C=C\[C@H](C)[C@H]1CC[C@]2(C)C[C@@]3(O)[C@H](C)C[C@@H](O)[C@@H]3/C(C=O)=C\C[C@@H]12`
Resp: > 50 µM

Req: Please answer likewise for `CC(C)=C/C=C\[C@H](C)[C@H]1CC[C@]2(C)C[C@H]3[C@@H]4/C(=C\C[C@@H]12)C(=O)O[C@]4(O)C[C@@]3(C)O`
Resp: > 50 µM

Continuing:
Req: Any idea what CC50 was measured for `C[C@@H](/C=C\[C@H](O)C(C)(C)O)[C@H]1CC[C@]2(C)C[C@H]3[C@@H](C(=O)C[C@@]3(C)O)/C(C=O)=C\C[C@@H]12` ?
Resp: > 50 µM

Req: Please answer likewise for `CC(C)=C/C=C\[C@H](C)[C@H]1CC[C@]2(C)C[C@H]3[C@@H]4/C(=C\C[C@@H]12)CO[C@]4(O)C[C@@]3(C)O`
Resp: 18 µM
